assay: Critical micelle concentration of compound by ITC method; format: physicochemical
Where a SMILES comes first, the peptide text is derived from it. [ ]: non-standard residue; d: D form. The star is where a group is joined. ξ: configuration not given here. Palmitoyl = CCCCCCCCCCCCCCCC(=O)*; Myristoyl = CCCCCCCCCCCCCC(=O)*; ξDab = NCCC(N)C(=O)O; ξDap = NCC(N)C(=O)O
quantity: CMC

# count of solved cases: 2
molecule	quantity	result
CCCCCCCCCCCCCC(=O)NCCC(NC(=O)CCCCCCCCCCCCC)C(=O)N[C@@H](CCCCN)C(=O)N[C@@H](CCCCN)C(=O)N[C@@H](CCCCN)C(N)=O (stereo partly drawn) (Myristoyl-[ξDab](Myristoyl)KKK-NH2)	CMC	0.28 to 0.53 mM
CCCCCCCCCCCCCCCC(=O)NCC(NC(=O)CCCCCCCCCCCCCCC)C(=O)N[C@@H](CCCCN)C(=O)N[C@@H](CCCCN)C(=O)N[C@@H](CCCCN)C(N)=O (stereo partly drawn) (Palmitoyl-[ξDap](Palmitoyl)KKK-NH2)	CMC	0.35 to 0.7 mM

Consider the record given below.
Qu. Dear colleague, I am looking for the recorded CMC of the following molecule: CCCCCCCCCCCCCCCC(=O)NCCC(NC(=O)CCCCCCCCCCCCCCC)C(=O)N[C@@H](CCCCN)C(=O)N[C@@H](CCCCN)C(=O)N[C@@H](CCCCN)C(N)=O (stereo partly drawn) (Palmitoyl-[ξDab](Palmitoyl)KKK-NH2)
Ans. 0.06 to 0.22 mM
